Measured seed-corrected z-score accompanies every entry in the list below.
Assay: Identification of proteins required for the processing of the EWS-FLI1 nascent transcript;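 also: robust z of luciferase light less the median z of siRNAs with the same seed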
Conditions: TC32 Ewing sarcoma NR0B1-luc vs CMV-luc (EWS-FLI1 target promoter against control promoter), 48 h; screened at 20 nM (by protocol)
Over roughly 59,000 sequences, the read-out has its median near -0.00055; the lowest 2% begin near -2. The full list was thinned out, with the lowest values kept by preference.

[
  {
    "POLYMER_SEQUENCE": "UAUCUGAGGAGUUCUGACC against SLC22A2",
    "seed-corrected z-score": 0.452
  },
  {
    "POLYMER_SEQUENCE": "UCUUUGAGAAUGUCAAGCU against TIMM44",
    "seed-corrected z-score": 0.11
  },
  {
    "POLYMER_SEQUENCE": "UCUGUUGCUGCCUAAACUC against TMEM198B",
    "seed-corrected z-score": 0.298
  }
]
